# System: c-Abl (mouse)
# EXPERIMENTAL_DETAILS: phosphorylation enrichment, bacterial display (enrichment ratio); higher = better substrate or ligand; peptides without Tyr show the background
Respond with satisfied for phosphorylation enrichment values of 0.6 and above, not satisfied for values below.

Some solved entries appear below for comparison.
{"SEQ_STRING": "LKALHYMAQTS [SACS_Y3367_V3369A]", "ASSIGNED_CATEGORY": "satisfied"}
{"SEQ_STRING": "GLGVTYEQALA [MAP2_Y996]", "ASSIGNED_CATEGORY": "satisfied"}
{"SEQ_STRING": "PSSNLYFRCLT [CNGA3_Y168_W171C_YF]", "ASSIGNED_CATEGORY": "satisfied"}
{"SEQ_STRING": "CTTIHYNYMRN [TP53_Y234_C238R]", "ASSIGNED_CATEGORY": "not satisfied"}
{"SEQ_STRING": "IGEGTYRQVYK [CDK13_Y716_G717R]", "ASSIGNED_CATEGORY": "not satisfied"}

Please indicate if the recorded phosphorylation enrichment for QEIATYRRQLE [KRT14_Y415_L418Q] meets or exceeds 0.6.
satisfied

Please indicate if the recorded phosphorylation enrichment for EKMWSYMKSAE [GRIA3_Y705] meets or exceeds 0.6.
not satisfied

###

Measured SH2 binding enrichment by item
# TARGET_SYSTEM: c-Src SH2
# EXPERIMENTAL_DETAILS: SH2 binding enrichment of the phosphorylated peptide, bacterial display (enrichment ratio); higher = better substrate or ligand; peptides without Tyr show the background

Use the examples below as a reference point.
{"SEQ_STRING": "QEIATCRRLLE [KRT14_Y415_Y415C]", "SH2 binding enrichment": 0.704}
{"SEQ_STRING": "CTTIHQNYMCN [TP53_Y234_Y234Q]", "SH2 binding enrichment": 0.982}
{"SEQ_STRING": "SHEELYKWFTS [DYNC1H1_Y3051]", "SH2 binding enrichment": 0.562}

Using the record for DDKEFYSVHNK [MET_Y1235_Y1230D_YF] , report its SH2 binding enrichment.
0.486

Using the record for SQQTFCRVSNM [ABCD1_Y181_Y181C_YF] , report its SH2 binding enrichment.
0.502

###

# TARGET_SYSTEM: EPHB2 (UniProt P29323)
# Sequence (P29323 whole entry, looked up): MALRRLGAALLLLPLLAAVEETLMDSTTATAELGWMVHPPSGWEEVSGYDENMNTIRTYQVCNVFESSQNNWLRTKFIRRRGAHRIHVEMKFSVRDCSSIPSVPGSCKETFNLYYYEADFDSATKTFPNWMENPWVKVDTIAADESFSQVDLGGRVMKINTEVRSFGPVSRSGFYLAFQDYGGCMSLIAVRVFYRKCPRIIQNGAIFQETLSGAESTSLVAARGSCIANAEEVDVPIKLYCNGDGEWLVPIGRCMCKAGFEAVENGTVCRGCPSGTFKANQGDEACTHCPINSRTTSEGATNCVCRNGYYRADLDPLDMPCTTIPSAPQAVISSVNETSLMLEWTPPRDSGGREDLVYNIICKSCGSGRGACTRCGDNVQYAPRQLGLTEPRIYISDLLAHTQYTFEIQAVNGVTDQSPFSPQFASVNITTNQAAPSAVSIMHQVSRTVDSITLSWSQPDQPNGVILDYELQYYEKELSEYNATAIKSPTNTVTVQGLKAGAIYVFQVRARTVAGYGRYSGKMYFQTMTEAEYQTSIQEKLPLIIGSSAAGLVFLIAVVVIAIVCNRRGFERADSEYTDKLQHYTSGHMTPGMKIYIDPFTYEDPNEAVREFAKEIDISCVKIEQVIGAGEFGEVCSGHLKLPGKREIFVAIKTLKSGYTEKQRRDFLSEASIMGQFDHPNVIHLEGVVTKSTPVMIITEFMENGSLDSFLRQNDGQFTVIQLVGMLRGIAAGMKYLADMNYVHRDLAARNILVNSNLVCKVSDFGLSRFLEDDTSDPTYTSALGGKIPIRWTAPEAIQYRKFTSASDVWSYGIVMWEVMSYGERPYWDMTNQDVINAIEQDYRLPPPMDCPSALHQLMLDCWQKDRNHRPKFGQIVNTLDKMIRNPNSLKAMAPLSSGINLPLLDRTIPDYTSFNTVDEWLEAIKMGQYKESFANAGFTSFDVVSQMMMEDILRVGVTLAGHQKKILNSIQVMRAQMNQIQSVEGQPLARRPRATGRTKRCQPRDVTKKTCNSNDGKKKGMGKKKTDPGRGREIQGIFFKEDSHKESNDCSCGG
# EXPERIMENTAL_DETAILS: phosphorylation enrichment, bacterial display (enrichment ratio); higher = better substrate or ligand; peptides without Tyr show the background
RESULT_TYPE: phosphorylation enrichment
Please give only the number in your answer, with no unit.

Using the record for DFRTTYVNANE [KCNH2_Y475_N470D] , report its phosphorylation enrichment.
0.512

###

Measured SH2 binding enrichment by item
# TARGET_SYSTEM: Grb2 SH2 (UniProt P62993)
# Sequence (P62993 whole entry, looked up): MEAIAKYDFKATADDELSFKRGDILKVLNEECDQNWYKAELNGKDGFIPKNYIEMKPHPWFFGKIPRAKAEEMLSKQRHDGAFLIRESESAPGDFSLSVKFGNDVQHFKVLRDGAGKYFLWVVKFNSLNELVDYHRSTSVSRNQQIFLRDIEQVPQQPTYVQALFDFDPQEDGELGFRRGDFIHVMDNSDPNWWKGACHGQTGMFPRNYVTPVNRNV
# EXPERIMENTAL_DETAILS: SH2 binding enrichment of the phosphorylated peptide, bacterial display (enrichment ratio); higher = better substrate or ligand; peptides without Tyr show the background

Use the examples below as a reference point.
{"SEQ_STRING": "DEEEEYEYMNR [ERBB3_Y1197_D1194E]", "SH2 binding enrichment": 0.817}
{"SEQ_STRING": "KWHREYNSKYV [RICTOR_Y835]", "SH2 binding enrichment": 1.47}
{"SEQ_STRING": "VEKEKYVSFIS [JMJD1C_Y596_M591V_YF]", "SH2 binding enrichment": 0.708}
{"SEQ_STRING": "SSNLFYRCLTA [CNGA3_Y169_W171C_YF]", "SH2 binding enrichment": 0.808}
{"SEQ_STRING": "EAVKNYTDKRG [PBRM1_Y672]", "SH2 binding enrichment": 0.866}
{"SEQ_STRING": "QTLTDYDIRFF [CSNK2A1_Y131_YF]", "SH2 binding enrichment": 0.794}
{"SEQ_STRING": "YGMQLYQNYMH [GRB14_Y347]", "SH2 binding enrichment": 6.36}
{"SEQ_STRING": "HFPFQYHRQLF [F12_Y53_YF]", "SH2 binding enrichment": 1.67}

Using the record for GISDEYHVIWH [GCDH_Y398_R402W] , report its SH2 binding enrichment.
0.789

Using the record for QDRDLYPCPGT [RLF_Y671] , report its SH2 binding enrichment.
1.11

Using the record for ERKQTYGSCRK [LACTB_Y473] , report its SH2 binding enrichment.
1.09

Using the record for ELPQTYCVSGP [DYSF_Y1684_G1679E] , report its SH2 binding enrichment.
0.838

Using the record for HNLDFYKKTTN [FGFR3_Y648_YF] , report its SH2 binding enrichment.
1.02

Using the record for GRRGQYVMLSE [TTC7A_Y396] , report its SH2 binding enrichment.
0.84

Using the record for CTTIHYNFMCI [TP53_Y234_N239I_YF] , report its SH2 binding enrichment.
1.71

Using the record for SKDQICPMKLK [RANBP17_Y823_Y823C] , report its SH2 binding enrichment.
1.08

Using the record for LTEHGYSFTTT [ACTB_Y198_R196H] , report its SH2 binding enrichment.
0.817

Using the record for VSYDEYRYRSF [CFTR_Y515_V520F] , report its SH2 binding enrichment.
0.72

Using the record for SRDDDYETIAM [NPY1R_Y347] , report its SH2 binding enrichment.
0.979

Using the record for ASKEPYFVHCI [MYO1D_Y585_R588H_YF] , report its SH2 binding enrichment.
0.982
